Target: T1, recombinant human KAAG1 (purified protein) (human, UniProt Q9UBP8 1-84, limits assumed)
T1 construct: also called gel filtration purified KAAG1
T1 sequence: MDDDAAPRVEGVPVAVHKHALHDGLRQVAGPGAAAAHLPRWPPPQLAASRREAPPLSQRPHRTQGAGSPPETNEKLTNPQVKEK
Assay: SPR as above; KD relative to LcHc
Method: Immediately after the activation, a 13 μg/mL solution of anti-human IgG Fc fragment specific in 10 mM NaOAc pH 4.5 was injected in the analyte direction at a flow rate of 25 μL/min until approximately 8000 resonance units (RUs) were immobilized. […] Sensorgrams were aligned and double-referenced using the buffer blank injection and interspots, and the resulting sensorgrams were analyzed using ProteOn Manager software v3.0.
This listing pairs binders with measured Fold diff..
Entry rule: numbers only, all in fold.

Some solved entries appear below for comparison.
Binder | Result Type | Value Observed
humanized 3A4 antibody Lh1Hh4 (antibody, human IgG1, kappa, V domains shown, human IgG1 kappa) VH: QIQLVQSGAEVKKPGASVKVSCKASGYTFTDDYMSWVKQAPGQGLEWIGDINPYNGDTNYNQKFKGKATLTVDKSTSTAYMELSSLRSEDTAVYYCARDPGAMDYWGQGTLVTVSS VL: DIVMTQTPLSLPVTPGEPASISCRSSQSLLHSNGNTYLEWYLQKPGQSPQLLIYTVSNRFSGVPDRFSGSGSGTDFTLKISRVEAEDVGVYYCFQGSHVPLTFGQGTKLEIKR | Fold diff. | 9.3
humanized 3A4 antibody Lh2Hh1 (antibody, human IgG1, kappa, V domains shown, human IgG1 kappa) VH: QVQLVQSGAEVKKPGASVKVSCKASGYTFTDDYMSWVRQAPGQGLEWMGDINPYNGDTNYNQKFKGRVTITADTSTSTAYMELSSLRSEDTAVYYCARDPGAMDYWGQGTLVTVSS VL: DVVMTQTPLSLPVTPGEPASISCRSSQSLLHSNGNTYLEWYLQKPGQSPKLLIYTVSNRFSGVPDRFSGSGSGTDFTLKISRVEAEDVGVYYCFQGSHVPLTFGQGTKLEIKR | Fold diff. | 21.3
humanized 3A4 antibody Lh1Hh3 (antibody, human IgG1, kappa, V domains shown, human IgG1 kappa) VH: QIQLVQSGAEVKKPGASVKVSCKASGYTFTDDYMSWVRQAPGQGLEWIGDINPYNGDTNYNQKFKGRATLTVDKSTSTAYMELSSLRSEDTAVYYCARDPGAMDYWGQGTLVTVSS VL: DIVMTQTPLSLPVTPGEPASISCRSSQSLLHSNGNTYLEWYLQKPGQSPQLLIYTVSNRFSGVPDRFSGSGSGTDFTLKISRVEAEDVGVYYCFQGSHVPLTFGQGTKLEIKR | Fold diff. | 9.3

Looking up humanized 3A4 antibody Lh2Hh3 (antibody, human IgG1, kappa, V domains shown, human IgG1 kappa) VH: QIQLVQSGAEVKKPGASVKVSCKASGYTFTDDYMSWVRQAPGQGLEWIGDINPYNGDTNYNQKFKGRATLTVDKSTSTAYMELSSLRSEDTAVYYCARDPGAMDYWGQGTLVTVSS VL: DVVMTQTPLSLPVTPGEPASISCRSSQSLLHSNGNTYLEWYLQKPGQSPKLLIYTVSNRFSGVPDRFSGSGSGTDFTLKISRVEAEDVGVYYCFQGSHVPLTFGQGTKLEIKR , I found its Fold diff. recorded as 14.3

Looking up humanized 3A4 antibody Lh2Hh2 (antibody, human IgG1, kappa, V domains shown, human IgG1 kappa) VH: QIQLVQSGAEVKKPGASVKVSCKASGYTFTDDYMSWVRQAPGQGLEWMGDINPYNGDTNYNQKFKGRVTITADKSTSTAYMELSSLRSEDTAVYYCARDPGAMDYWGQGTLVTVSS VL: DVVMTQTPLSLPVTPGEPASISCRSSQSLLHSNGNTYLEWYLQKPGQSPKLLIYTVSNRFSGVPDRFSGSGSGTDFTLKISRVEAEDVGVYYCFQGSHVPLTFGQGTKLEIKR , I found its Fold diff. recorded as 15.3

Looking up humanized 3A4 antibody Lh1Hh1 (antibody, human IgG1, kappa, V domains shown, 100% humanized frameworks; human IgG1 kappa; also called H1L1) VH: QVQLVQSGAEVKKPGASVKVSCKASGYTFTDDYMSWVRQAPGQGLEWMGDINPYNGDTNYNQKFKGRVTITADTSTSTAYMELSSLRSEDTAVYYCARDPGAMDYWGQGTLVTVSS VL: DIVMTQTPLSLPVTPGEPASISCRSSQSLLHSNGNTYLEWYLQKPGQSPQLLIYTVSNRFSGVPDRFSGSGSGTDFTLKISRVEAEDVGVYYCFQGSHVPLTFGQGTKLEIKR , I found its Fold diff. recorded as 29.6

Cited source for all entries: patent US20210054067A1
